test: Quantitative High-Throughput drug screen in 47 multiple myeloma cell lines against the NCATS MIPE library collection: ARD_JJKsccE7 cell viability assay (AID 1918929; note: potency is the fitted concentration of half-maximal effect); conditions: ARD myeloma cell line viability, CellTiter-Glo, 48 h; series mostly up to 45.8 µM
Inconclusive results are not listed. The source made the active and inactive calls. Calls come from the whole dose curve; as a rule, active = well fitted cell-killing curve with a large enough effect; inconclusive = small, poorly fitted or top-dose-only effect, or effect the other way; inactive = no such curve, though single readings can be large or run the other way.
value type: Potency

The cases that follow already have their Potency on record.
Cc1c(CCOc2ccc(C(=O)O)cc2)c2cc(Cl)ccc2n1C(c1ccccc1)c1ccccc1 | inactive
CC(C)(C)NCC(O)c1ccc(O)c(CO)c1 (centres undefined) | 0.0526 µM (active)
C[C@@H]1CN(Cc2ccc(F)cc2)[C@@H](C)CN1C(=O)c1cc2c(C(=O)C(=O)N(C)C)cn(C)c2cc1Cl | 9.35 µM (active)
CCN(CC)CCCC(C)Nc1nc(C)cc(Nc2ccc3nc(C)cc(N)c3c2)n1 (centres undefined) | 14.8 µM (active)
Cc1oncc1C(=O)Nc1ccc(C(F)(F)F)cc1 | inactive
OCCC#Cc1nc(-c2ccc(F)cc2)c(-c2ccncc2)n1CCCc1ccccc1 | 16.6 µM (active)

Q: Return reported Potency; argument: `Cc1csc(NC(=O)c2sc3nc4c(c(C(F)(F)F)c3c2N)CCC4)n1`
Result: inactive

Q: And for `CCOC(=O)N[C@@H]1CC[C@@H]2[C@@H](C1)C[C@H]1C(=O)O[C@H](C)[C@H]1[C@@H]2C=Cc1ccc(-c2cccc(F)c2)cn1` ?
Result: 18.7 µM (active)

Q: And for `O=C(C=Cc1ccc(/C=C/C(=O)Nc2ccc(C3=NCCN3)cc2)cc1)Nc1ccc(C2=NCCN2)cc1` ?
Result: inactive
